- Tested on: biotinyl-Trp-oxazolone
- METHOD NOTES: self-aminoacylation, catalytic enhancement (BWO) (fold over background); higher = more active; k-Seq, kA / k0A0; sequences stand for … in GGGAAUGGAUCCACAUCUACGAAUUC…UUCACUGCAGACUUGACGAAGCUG
Fewer inactive variants are shown than the library holds.
READOUT KIND: self-aminoacylation
Respond using a number only.

| SEQUENCE STRING | self-aminoacylation |
| --- | --- |
| CCACACUGGAAGCAAUCGGUC [Fam1B.1 aminoacylation ribozyme variant] | 0.543 |

Item: CUACUUCAAGCAAUCGGUCAG [Fam1A.1 aminoacylation ribozyme variant] | System: biotinyl-Trp-oxazolone | self-aminoacylation: 1.3

With biotinyl-Trp-oxazolone as the test system, CCACUUCAAAAAAUCGGUCUG [Fam1A.1 aminoacylation ribozyme variant] showed self-aminoacylation of 12.1

Measured on biotinyl-Trp-oxazolone, CCAAACUUCAAGCAAUCGGUC [Fam1B.1 aminoacylation ribozyme variant] has a documented self-aminoacylation of 15.6
